# target_desc: Toll-like receptor 7 (Mus musculus)
# test_details: Agonist activity at TLR7 in mouse RAW264.7 cells assessed as immunostimulatory activity by measuring increase in TNFalpha secretion incubated for 18 hrs by ELISA
# Assay type: cell-based
pEC50: −log10 of the molar value.
measurement_name: pEC50

compound: COCCOc1nc(N)c2nc(O)n(Cc3ccc(C(=O)N[C@H]4C(O)O[C@H](CO)[C@@H](O)[C@@H]4O)cc3)c2n1 (some centres undefined)
measurement_name: pEC50
reading: 6.63
//
compound: COCCOc1nc(N)c2nc(O)n(Cc3ccc(C(=O)NC[C@H]4O[C@@H]5O[C@H]6[C@H](O)[C@@H](O)[C@@H](O[C@H]7[C@H](O)[C@@H](O)[C@@H](O[C@H]8[C@H](O)[C@@H](O)[C@@H](O[C@H]9[C@H](O)[C@@H](O)[C@@H](O[C@H]%10[C@H](O)[C@@H](O)[C@@H](O[C@H]4[C@H](O)[C@H]5O)O[C@@H]%10CO)O[C@@H]9CO)O[C@@H]8CO)O[C@@H]7CO)O[C@@H]6CO)cc3)c2n1
measurement_name: pEC50
reading: 6.89
//
compound: COCCOc1nc(N)c2nc(O)n(Cc3ccc(C(=O)NC4O[C@H](CO)[C@@H](O)[C@H](O)[C@H]4O)cc3)c2n1 (some centres undefined)
measurement_name: pEC50
reading: 6.64
//
compound: COCCOc1nc(N)c2nc(O)n(Cc3ccc(C(=O)NC4O[C@H](CO)[C@@H](O)[C@H](O)[C@@H]4O)cc3)c2n1 (some centres undefined)
measurement_name: pEC50
reading: 6.60

* * *

# Emax per record follows
# target_desc: Toll-like receptor 7 (Mus musculus)
# test_details: Agonist activity at TLR7 in mouse BMDC cells assessed as immunostimulatory activity by measuring increase in IL6 secretion incubated for 18 hrs by ELISA relative to 1V209
# Type: cell-based
measurement_name: Emax (%)

molecule: COCCOc1nc(N)c2nc(O)n(Cc3ccc(C(=O)NC4O[C@H](CO)[C@@H](O)[C@H](O)[C@H]4O)cc3)c2n1 (some centres undefined)
target_desc: Toll-like receptor 7 (Mus musculus)
units: %
reading: 118
//
molecule: COCCOc1nc(N)c2nc(O)n(Cc3ccc(C(=O)NC[C@H]4O[C@@H]5O[C@H]6[C@H](O)[C@@H](O)[C@@H](O[C@H]7[C@H](O)[C@@H](O)[C@@H](O[C@H]8[C@H](O)[C@@H](O)[C@@H](O[C@H]9[C@H](O)[C@@H](O)[C@@H](O[C@H]%10[C@H](O)[C@@H](O)[C@@H](O[C@H]4[C@H](O)[C@H]5O)O[C@@H]%10CO)O[C@@H]9CO)O[C@@H]8CO)O[C@@H]7CO)O[C@@H]6CO)cc3)c2n1
target_desc: Toll-like receptor 7 (Mus musculus)
units: %
reading: 127
//
molecule: COCCOc1nc(N)c2nc(O)n(Cc3ccc(C(=O)NC4O[C@H](CO)[C@H](O)[C@H](O)[C@H]4O)cc3)c2n1 (some centres undefined)
target_desc: Toll-like receptor 7 (Mus musculus)
units: %
reading: 118
//
molecule: COCCOc1nc(N)c2nc(O)n(Cc3ccc(C(=O)NC[C@H]4O[C@@H]5O[C@H]6[C@H](O)[C@@H](O)[C@@H](O[C@H]7[C@H](O)[C@@H](O)[C@@H](O[C@H]8[C@H](O)[C@@H](O)[C@@H](O[C@H]9[C@H](O)[C@@H](O)[C@@H](O[C@H]%10[C@H](O)[C@@H](O)[C@@H](O[C@H]%11[C@H](O)[C@@H](O)[C@@H](O[C@H]4[C@H](O)[C@H]5O)O[C@@H]%11CO)O[C@@H]%10CO)O[C@@H]9CO)O[C@@H]8CO)O[C@@H]7CO)O[C@@H]6CO)cc3)c2n1
target_desc: Toll-like receptor 7 (Mus musculus)
units: %
reading: 127

* * *

# target_desc: Toll-like receptor 7 (Mus musculus, UniProt P58681)
# Sequence (P58681 whole entry): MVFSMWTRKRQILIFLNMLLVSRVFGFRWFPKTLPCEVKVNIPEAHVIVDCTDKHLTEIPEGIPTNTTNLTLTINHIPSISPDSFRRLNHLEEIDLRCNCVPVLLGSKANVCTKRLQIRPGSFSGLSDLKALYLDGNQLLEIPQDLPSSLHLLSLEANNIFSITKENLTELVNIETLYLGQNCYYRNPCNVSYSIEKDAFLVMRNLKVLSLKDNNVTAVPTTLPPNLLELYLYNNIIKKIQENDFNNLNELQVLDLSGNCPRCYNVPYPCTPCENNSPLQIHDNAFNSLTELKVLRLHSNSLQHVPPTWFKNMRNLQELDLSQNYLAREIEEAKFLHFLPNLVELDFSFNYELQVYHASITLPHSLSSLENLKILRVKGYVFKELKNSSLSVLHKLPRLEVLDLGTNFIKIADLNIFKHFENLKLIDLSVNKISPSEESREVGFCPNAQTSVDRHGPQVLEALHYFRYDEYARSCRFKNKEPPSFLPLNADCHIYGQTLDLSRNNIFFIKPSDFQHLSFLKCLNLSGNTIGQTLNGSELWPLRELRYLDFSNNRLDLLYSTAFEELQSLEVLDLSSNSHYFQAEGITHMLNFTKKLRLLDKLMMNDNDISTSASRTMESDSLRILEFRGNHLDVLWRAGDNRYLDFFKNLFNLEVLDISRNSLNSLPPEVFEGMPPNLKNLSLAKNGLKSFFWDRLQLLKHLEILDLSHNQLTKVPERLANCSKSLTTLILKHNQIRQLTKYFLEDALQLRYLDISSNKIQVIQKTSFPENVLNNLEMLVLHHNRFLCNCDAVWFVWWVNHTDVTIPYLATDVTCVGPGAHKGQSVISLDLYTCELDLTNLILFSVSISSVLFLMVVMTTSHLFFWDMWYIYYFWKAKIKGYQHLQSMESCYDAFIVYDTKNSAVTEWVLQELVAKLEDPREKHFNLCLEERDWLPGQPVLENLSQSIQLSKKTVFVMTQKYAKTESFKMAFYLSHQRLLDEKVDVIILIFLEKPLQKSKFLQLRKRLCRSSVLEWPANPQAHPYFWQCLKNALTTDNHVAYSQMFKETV
# test_details: Agonist activity at TLR7 in mouse BMDC cells assessed as immunostimulatory activity by measuring increase in IL6 secretion incubated for 18 hrs by ELISA
# Assay type: cell-based
pEC50: −log10 of the molar value.
# pEC50 per record follows

molecule: COCCOc1nc(N)c2nc(O)n(Cc3ccc(C(=O)N[C@H]4C(O)O[C@H](CO)[C@H](O)[C@@H]4O)cc3)c2n1 (stereo partly drawn)
pEC50: 6.68
--
molecule: COCCOc1nc(N)c2nc(O)n(Cc3ccc(C(=O)N[C@H]4C(O)O[C@H](CO)[C@@H](O)[C@@H]4O)cc3)c2n1 (stereo partly drawn)
pEC50: 6.62
--
molecule: COCCOc1nc(N)c2nc(O)n(Cc3ccc(C(=O)NC4O[C@H](CO)[C@@H](O[C@H]5O[C@H](CO)[C@@H](O)[C@H](O)[C@H]5O)[C@H](O)[C@H]4O)cc3)c2n1 (stereo partly drawn)
pEC50: 7.00

* * *

# target_desc: UniProt P58681
# test_details: Agonist activity at TLR7 in mouse RAW264.7 cells assessed as immunostimulatory activity by measuring increase in TNFalpha secretion incubated for 18 hrs by ELISA relative to 1V209
# Format: cell-based
# Emax per record follows

compound: COCCOc1nc(N)c2nc(O)n(Cc3ccc(C(=O)NC4O[C@H](CO)[C@@H](O)[C@H](O)[C@H]4O)cc3)c2n1 (some centres undefined)
Emax (%): 87
//
compound: COCCOc1nc(N)c2nc(O)n(Cc3ccc(C(=O)NC[C@H]4O[C@@H]5O[C@H]6[C@H](O)[C@@H](O)[C@@H](O[C@H]7[C@H](O)[C@@H](O)[C@@H](O[C@H]8[C@H](O)[C@@H](O)[C@@H](O[C@H]9[C@H](O)[C@@H](O)[C@@H](O[C@H]%10[C@H](O)[C@@H](O)[C@@H](O[C@H]4[C@H](O)[C@H]5O)O[C@@H]%10CO)O[C@@H]9CO)O[C@@H]8CO)O[C@@H]7CO)O[C@@H]6CO)cc3)c2n1
Emax (%): 126
//
compound: COCCOc1nc(N)c2nc(O)n(Cc3ccc(C(=O)NC4O[C@H](CO)[C@@H](O)[C@H](O)[C@@H]4O)cc3)c2n1 (some centres undefined)
Emax (%): 121
//
compound: COCCOc1nc(N)c2nc(O)n(Cc3ccc(C(=O)NC4O[C@H](CO)[C@@H](O[C@H]5O[C@H](CO)[C@@H](O)[C@H](O)[C@H]5O)[C@H](O)[C@H]4O)cc3)c2n1 (some centres undefined)
Emax (%): 157
//
compound: COCCOc1nc(N)c2[nH]c(=O)n(Cc3ccc(C(=O)O)cc3)c2n1
Emax (%): 100
//
compound: COCCOc1nc(N)c2nc(O)n(Cc3ccc(C(=O)NC[C@H]4O[C@@H]5O[C@H]6[C@H](O)[C@@H](O)[C@@H](O[C@H]7[C@H](O)[C@@H](O)[C@@H](O[C@H]8[C@H](O)[C@@H](O)[C@@H](O[C@H]9[C@H](O)[C@@H](O)[C@@H](O[C@H]%10[C@H](O)[C@@H](O)[C@@H](O[C@H]%11[C@H](O)[C@@H](O)[C@@H](O[C@H]4[C@H](O)[C@H]5O)O[C@@H]%11CO)O[C@@H]%10CO)O[C@@H]9CO)O[C@@H]8CO)O[C@@H]7CO)O[C@@H]6CO)cc3)c2n1
Emax (%): 135
//
compound: COCCOc1nc(N)c2nc(O)n(Cc3ccc(C(=O)NC[C@H]4O[C@@H]5O[C@H]6[C@H](O)[C@@H](O)[C@@H](O[C@H]7[C@H](O)[C@@H](O)[C@@H](O[C@H]8[C@H](O)[C@@H](O)[C@@H](O[C@H]9[C@H](O)[C@@H](O)[C@@H](O[C@H]%10[C@H](O)[C@@H](O)[C@@H](O[C@H]%11[C@H](O)[C@@H](O)[C@@H](O[C@H]%12[C@H](O)[C@@H](O)[C@@H](O[C@H]4[C@H](O)[C@H]5O)O[C@@H]%12CO)O[C@@H]%11CO)O[C@@H]%10CO)O[C@@H]9CO)O[C@@H]8CO)O[C@@H]7CO)O[C@@H]6CO)cc3)c2n1
Emax (%): 97
//
compound: COCCOc1nc(N)c2nc(O)n(Cc3ccc(C(=O)N[C@H]4C(O)O[C@H](CO)[C@H](O)[C@@H]4O)cc3)c2n1 (some centres undefined)
Emax (%): 83
//
compound: COCCOc1nc(N)c2nc(O)n(Cc3ccc(C(=O)NC4O[C@H](CO)[C@H](O)[C@H](O)[C@H]4O)cc3)c2n1 (some centres undefined)
Emax (%): 115

Cited source for all entries: ChEMBL document CHEMBL4610021
